System: ATN-1 (T-Lymphoblastic Leukemia);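 also: after 72 h of two-drug dosing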
assay.procedure: Bliss excess, mean over the matrix (fraction); higher = more synergy
Tag: 1 (yes) if measured Bliss excess is not below 0.02, 0 (no) if it is.

molecule	classification
CN(CCO)CC[C@H](CSc1ccccc1)Nc1ccc(S(=O)(=O)NC(=O)c2ccc(N3CCC([C@@H](O)c4ccccc4-c4ccc(Cl)cc4)CC3)cc2)cc1S(=O)(=O)C(F)(F)F [AZD4320] + CCN(CCO)CCCOc1ccc2c(Nc3cc(CC(=O)Nc4cccc(F)c4)[nH]n3)ncnc2c1 [AZD2811] (first compound max 1 µM, 7x7, partner max 1 µM)	0 (no)
CN(CCO)CC[C@H](CSc1ccccc1)Nc1ccc(S(=O)(=O)NC(=O)c2ccc(N3CCC([C@@H](O)c4ccccc4-c4ccc(Cl)cc4)CC3)cc2)cc1S(=O)(=O)C(F)(F)F [AZD4320] + C=CCn1c(=O)c2cnc(Nc3ccc(N4CCN(C)CC4)cc3)nc2n1-c1cccc(C(C)(C)O)n1 [AZD1775] (first compound max 1 µM, partner max 1 µM)	1 (yes)
CS(=O)(=O)CCNCc1ccc(-c2ccc3ncnc(Nc4ccc(OCc5cccc(F)c5)c(Cl)c4)c3c2)o1 [Lapatinib] + C[C@@H](Oc1cc(-c2cnn(C3CCNCC3)c2)cnc1N)c1c(Cl)ccc(F)c1Cl [Crizotinib] (first compound max 10 µM, 7x7, partner max 10 µM)	1 (yes)
C=CCn1c(=O)c2cnc(Nc3ccc(N4CCN(C)CC4)cc3)nc2n1-c1cccc(C(C)(C)O)n1 [AZD1775] + C1CN(CCC1(C(=O)N[C@@H](CCO)C2=CC=C(C=C2)Cl)N)C3=NC=NC4=C3C=CN4 [Capivasertib] (first compound max 3 µM, partner max 3 µM)	1 (yes)
CC(=O)c1c(C)c2cnc(Nc3ccc(N4CCNCC4)cn3)nc2n(C2CCCC2)c1=O [Palbociclib] + Cn1cnc2c(F)c(Nc3ccc(Br)cc3Cl)c(C(=O)NOCCO)cc21 [Selumetinib] (first compound max 10 µM, 7x7, partner max 10 µM)	1 (yes)
NC1(C(=O)N[C@@H](CCO)c2ccc(Cl)cc2)CCN(c2ncnc3[nH]ccc23)CC1 [Capivasertib] + CC(=O)c1c(C)c2cnc(Nc3ccc(N4CCNCC4)cn3)nc2n(C2CCCC2)c1=O [Palbociclib] (first compound max 10 µM, 7x7, partner max 10 µM)	0 (no)
Cc1c2c(nn1C)CSCc1cc(n(C)n1)CSc1cc(c3ccccc3c1)OCCCc1c(C(=O)O)n(C)c3c-2c(Cl)ccc13 [AZD5991] + CN(C)CCCOc1ccc(-c2ccc3ncc4c(c3c2)n(C2CCOCC2)c(=O)n4C)cn1 [AZD0156] (first compound max 1 µM, 7x7, partner max 1 µM)	0 (no)
CC1(C)CCC(CN2CCN(c3ccc(C(=O)NS(=O)(=O)c4ccc(NCC5CCOCC5)c([N+](=O)[O-])c4)c(Oc4cnc5[nH]ccc5c4)c3)CC2)=C(c2ccc(Cl)cc2)C1 [Venetoclax] + CN(C)CCCOc1ccc(-c2ccc3ncc4c(c3c2)n(C2CCOCC2)c(=O)n4C)cn1 [AZD0156] (first compound max 1 µM, 7x7, partner max 1 µM)	1 (yes)
CN(CCO)CC[C@H](CSc1ccccc1)Nc1ccc(S(=O)(=O)NC(=O)c2ccc(N3CCC([C@@H](O)c4ccccc4-c4ccc(Cl)cc4)CC3)cc2)cc1S(=O)(=O)C(F)(F)F [AZD4320] + C1CN(CCC1(C(=O)N[C@@H](CCO)C2=CC=C(C=C2)Cl)N)C3=NC=NC4=C3C=CN4 [Capivasertib] (first compound max 1 µM, 7x7, partner max 3 µM)	0 (no)
C[C@@H](c1ccc2nccn2c1)n1nnc2ncc(-c3cnn(C)c3)nc21 [Savolitinib] + CC1(C)CCC(CN2CCN(c3ccc(C(=O)NS(=O)(=O)c4ccc(NCC5CCOCC5)c([N+](=O)[O-])c4)c(Oc4cnc5[nH]ccc5c4)c3)CC2)=C(c2ccc(Cl)cc2)C1 [Venetoclax] (first compound max 1 µM, 7x7, partner max 1 µM)	0 (no)
Cc1cc2ncnn2cc1Nc1ncc2c(n1)n(C1CCOCC1)c(=O)n2C [AZD7648] + C=CCn1c(=O)c2cnc(Nc3ccc(N4CCN(C)CC4)cc3)nc2n1-c1cccc(C(C)(C)O)n1 [AZD1775] (first compound max 10 µM, partner max 1 µM)	0 (no)
Cc1c2c(nn1C)CSCc1cc(n(C)n1)CSc1cc(c3ccccc3c1)OCCCc1c(C(=O)O)n(C)c3c-2c(Cl)ccc13 [AZD5991] + CC1(C)CCC(CN2CCN(c3ccc(C(=O)NS(=O)(=O)c4ccc(NCC5CCOCC5)c([N+](=O)[O-])c4)c(Oc4cnc5[nH]ccc5c4)c3)CC2)=C(c2ccc(Cl)cc2)C1 [Venetoclax] (first compound max 1 µM, 7x7, partner max 1 µM)	1 (yes)
